Below, each of the compounds is paired with its reported microsomal CLint value.
Assay: Metabolic stability in rat liver microsomes
Details: female, SD
Give your result in µL/min/mg as a bare value.

Examples with answers:
| COMPOUND | OBSERVATION_TYPE | UNIT_STRING | ASSAY_VALUE |
| --- | --- | --- | --- |
| [2H]C([2H])([2H])Oc1cccc(-c2c(F)c(F)c(NC(=O)C3=C(C(=O)NS(C)(=O)=O)CCC3)c(F)c2F)c1 [Example 1/7] | microsomal CLint | µL/min/mg | 30.5 |
| [2H]C([2H])([2H])Oc1cccc(-c2cc(F)c(NC(=O)c3ccsc3C(=O)NOCCO)c(F)c2)c1 [Example 9/1] | microsomal CLint | µL/min/mg | 52.8 |
| [2H]C([2H])([2H])Oc1cccc(-c2cc(F)c(NC(=O)c3ccsc3C(=O)NOC)c(F)c2)c1 [Example 9] | microsomal CLint | µL/min/mg | 63.8 |
| CONC(=O)c1sccc1C(=O)Nc1c(F)cc(-c2cccc(OC)c2)cc1F [Example 9/9] | microsomal CLint | µL/min/mg | 69.3 |

Please examine the following record next.
Query :: Give the reported microsomal CLint for this compound. COc1cccc(-c2c(F)c(F)c(NC(=O)C3=C(C(=O)NS(C)(=O)=O)CCC3)c(F)c2F)c1 [Example 1/13]
Result :: 35.4

====

Below, each of the molecules is paired with its reported microsomal CLint value.
Test: Metabolic stability in human liver microsomes
Conditions: female
Give your result in µL/min/mg as a bare value.

| MOLECULE | microsomal CLint, µL/min/mg |
| --- | --- |
| COc1cccc(-c2c(F)c(F)c(NC(=O)C3=C(C(=O)NS(C)(=O)=O)CCC3)c(F)c2F)c1 [Example 1/13] | 10.3 |
| [2H]C([2H])([2H])Oc1cccc(-c2c(F)c(F)c(NC(=O)C3=C(C(=O)NS(C)(=O)=O)CCC3)c(F)c2F)c1 [Example 1/7] | 4.01 |
| CONC(=O)c1sccc1C(=O)Nc1c(F)cc(-c2cccc(OC)c2)cc1F [Example 9/9] | 66.1 |
| [2H]C([2H])([2H])Oc1cccc(-c2cc(F)c(NC(=O)c3ccsc3C(=O)NOCCO)c(F)c2)c1 [Example 9/1] | 40.4 |

Query :: Give the reported microsomal CLint for this molecule. [2H]C([2H])([2H])Oc1cccc(-c2cc(F)c(NC(=O)c3ccsc3C(=O)NOC)c(F)c2)c1 [Example 9]
Result :: 55.5

====

Target: N-terminally truncated recombinant hDHODH enzyme (Homo sapiens, UniProt Q02127)
Sequence (Q02127 whole entry, looked up, the tested form may be a part): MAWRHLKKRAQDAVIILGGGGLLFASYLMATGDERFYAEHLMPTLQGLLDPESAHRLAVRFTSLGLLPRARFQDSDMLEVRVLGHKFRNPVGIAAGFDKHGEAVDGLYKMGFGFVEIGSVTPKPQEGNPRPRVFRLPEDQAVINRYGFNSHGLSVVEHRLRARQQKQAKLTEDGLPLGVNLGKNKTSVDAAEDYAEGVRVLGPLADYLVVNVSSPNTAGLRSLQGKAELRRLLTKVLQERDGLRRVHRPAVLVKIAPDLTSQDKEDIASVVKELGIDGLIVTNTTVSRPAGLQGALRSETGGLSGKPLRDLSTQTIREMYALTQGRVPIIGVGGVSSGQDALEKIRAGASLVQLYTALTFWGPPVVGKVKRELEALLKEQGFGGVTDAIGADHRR
Assay: biochemical
Type: biochemical
Settings: human DHODH assay; read-out: IC50 range
OBSERVATION_TYPE: IC50

Examples with answers:
| SMILES_REPR | OBSERVATION_TYPE | ASSAY_VALUE |
| --- | --- | --- |
| [2H]C([2H])([2H])Oc1cccc(-c2c(F)c(F)c(NC(=O)c3ncsc3C(=O)NOC)c(F)c2F)c1 | IC50 | < 100 nM |
| [2H]C([2H])([2H])Oc1cccc(-c2cc(F)c(NC(=O)c3ccsc3C(=O)NOC)c(F)c2)c1 | IC50 | < 100 nM |
| [2H]C([2H])([2H])Oc1cccc(-c2c(F)c(F)c(NC(=O)c3occc3C(=O)NOC)c(F)c2F)c1 | IC50 | < 100 nM |
| [2H]C([2H])([2H])Oc1cccc(-c2ccc(NC(=O)C3=C(C(=O)NOCCO)CCC3)c(F)c2)c1 | IC50 | > 10000 nM |
| [2H]C([2H])([2H])ONC(=O)C1=C(C(=O)Nc2c(F)c(F)c(-c3cc(F)cc(OC([2H])([2H])[2H])c3)c(F)c2F)COC1 | IC50 | < 100 nM |
| [2H]C([2H])([2H])Oc1cccc(-c2ccc(NC(=O)c3ccsc3C(=O)NOC)c(F)c2F)c1 | IC50 | < 100 nM |

Query :: Give the reported IC50 for this compound. "[2H]C([2H])([2H])ONC(=O)c1cscc1C(=O)Nc1c(F)c(F)c(-c2cccc(OC([2H])([2H])[2H])c2)c(F)c1F"
Result :: < 100 nM

All values here come from patent US20250066290A1.
